The reported numbers originate from patent US20160297889A1.

Entries annotated with measured ADCC cytotoxic activity (51Cr release) on OCI-AML5
- TGT: T1, CAPRIN-1 protein expressed on the membrane surface of human cancer cells (human, UniProt Q14444 2-709)
- T1 sequence (looked up): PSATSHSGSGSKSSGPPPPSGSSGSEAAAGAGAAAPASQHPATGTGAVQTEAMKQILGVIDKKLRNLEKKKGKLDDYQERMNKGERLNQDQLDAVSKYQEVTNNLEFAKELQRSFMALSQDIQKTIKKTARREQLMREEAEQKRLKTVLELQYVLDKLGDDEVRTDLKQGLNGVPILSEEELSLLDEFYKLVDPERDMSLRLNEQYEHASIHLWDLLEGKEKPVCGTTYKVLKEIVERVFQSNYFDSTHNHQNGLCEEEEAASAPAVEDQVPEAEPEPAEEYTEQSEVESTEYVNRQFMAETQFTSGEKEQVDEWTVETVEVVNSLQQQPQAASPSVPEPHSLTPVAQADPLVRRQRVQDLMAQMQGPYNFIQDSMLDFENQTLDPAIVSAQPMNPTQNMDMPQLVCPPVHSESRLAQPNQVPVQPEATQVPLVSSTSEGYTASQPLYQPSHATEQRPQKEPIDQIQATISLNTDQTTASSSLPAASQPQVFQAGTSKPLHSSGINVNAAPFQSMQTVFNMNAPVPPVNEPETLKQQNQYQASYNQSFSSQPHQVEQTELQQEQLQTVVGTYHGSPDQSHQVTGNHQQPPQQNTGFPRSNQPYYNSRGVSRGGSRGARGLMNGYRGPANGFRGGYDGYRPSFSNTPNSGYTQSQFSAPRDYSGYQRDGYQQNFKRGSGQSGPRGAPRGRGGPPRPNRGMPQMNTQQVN
- ASSAY COMMENT: cell-based or functional assay

humanized antibody #6 (antibody, V domains shown) VH: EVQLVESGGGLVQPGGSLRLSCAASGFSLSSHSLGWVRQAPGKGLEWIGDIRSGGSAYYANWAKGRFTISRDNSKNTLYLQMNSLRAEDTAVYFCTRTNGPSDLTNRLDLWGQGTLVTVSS VL: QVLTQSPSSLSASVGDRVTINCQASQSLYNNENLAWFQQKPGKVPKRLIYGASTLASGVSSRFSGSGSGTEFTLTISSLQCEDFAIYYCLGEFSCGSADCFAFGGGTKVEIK = ≥ 20%
humanized antibody #3 (antibody, V domains shown) VH: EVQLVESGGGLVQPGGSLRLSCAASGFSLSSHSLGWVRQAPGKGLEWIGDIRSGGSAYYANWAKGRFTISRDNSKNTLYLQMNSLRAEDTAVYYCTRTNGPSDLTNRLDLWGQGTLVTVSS VL: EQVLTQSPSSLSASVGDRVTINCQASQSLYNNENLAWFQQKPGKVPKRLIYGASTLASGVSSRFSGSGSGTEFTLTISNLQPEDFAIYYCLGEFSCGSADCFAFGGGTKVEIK = ≥ 18%

Then this binder:
Form: binder = humanized antibody #0 (antibody, V domains shown) VH: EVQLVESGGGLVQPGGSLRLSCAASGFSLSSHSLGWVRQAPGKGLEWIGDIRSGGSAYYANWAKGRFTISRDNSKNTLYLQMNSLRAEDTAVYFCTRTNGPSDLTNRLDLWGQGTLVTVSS VL: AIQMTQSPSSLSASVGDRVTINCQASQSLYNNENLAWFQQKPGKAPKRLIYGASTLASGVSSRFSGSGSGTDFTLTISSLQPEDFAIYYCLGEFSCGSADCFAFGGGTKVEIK ; ADCC cytotoxic activity (51Cr release) on OCI-AML5 = ≥ 15%
